Molecular target: UniProt Q9Y5Y4
Test: CRTH2 receptor binding inhibitory activity ([3H]-PGD2 displacement, membranes of CRTH2-expressing K562 cell)
Settings: CRTH2 receptor binding, [3H]-PGD2 displacement, membrane of CRTH2-expressing K562 cell; categorized AAAA/AAA; read-out: Ki
pKi: −log10 of the molar value.
Overview of recorded pKi for various molecules

MOLECULE | pKi
COCCCOc1ccc(S(=O)(=O)N2C[C@@H](C)[C@@H](n3nc(CC(=O)O)c4ccccc43)C2)cc1 [Compound I-274] | > 7.00
CCSCCOc1ccc(S(=O)(=O)N2C[C@@H](C)[C@@H](n3nc(CC(=O)O)c4ccccc43)C2)cc1 [Compound I-308] | > 7.00
COc1ccc(S(=O)(=O)N2C[C@@H](C)[C@@H](n3nc(CC(=O)O)c4ccccc43)C2)c(F)c1 [Compound I-244] | > 7.00
CCOc1ccc(S(=O)(=O)N2C[C@H](n3nc(CC(=O)O)c4ccccc43)[C@@](C)(F)C2)cn1 (racemic) [Compound I-207] | > 7.00
CCOc1ccc(S(=O)(=O)N2C[C@H](n3nc(CC(=O)O)c4ccc(F)cc43)[C@H](C)[C@H]2C#N)cc1 [Compound I-217] | > 7.00
CCOCCCOc1ccc(S(=O)(=O)N2C[C@@H](C)[C@@H](n3nc(CC(=O)O)c4ccccc43)C2)cc1 [Compound I-273] | 5.30 to 7.00
CC(C)Oc1ccc(S(=O)(=O)N2C[C@@H](C)[C@H](n3nc(CC(=O)O)c4cc(Br)c(F)cc43)C2)cc1 [Compound I-156] | 5.30 to 7.00

* * *

Biological target: Human DP1 receptor (Homo sapiens (Human))
Sequence (Q13258 whole entry): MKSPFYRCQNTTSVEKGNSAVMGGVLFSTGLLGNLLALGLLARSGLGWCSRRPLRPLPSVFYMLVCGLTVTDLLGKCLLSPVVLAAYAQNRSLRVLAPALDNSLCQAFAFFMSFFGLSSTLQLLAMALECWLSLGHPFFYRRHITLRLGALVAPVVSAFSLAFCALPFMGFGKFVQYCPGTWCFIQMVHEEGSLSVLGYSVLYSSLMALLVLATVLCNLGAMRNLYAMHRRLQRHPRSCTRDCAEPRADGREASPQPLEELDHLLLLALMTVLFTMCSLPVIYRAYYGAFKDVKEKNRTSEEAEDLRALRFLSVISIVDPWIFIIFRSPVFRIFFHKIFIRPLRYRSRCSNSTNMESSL
Experiment: Human DP1 inhibitory activity in DP1-expressing cell (PGD2-induced cAMP)
Type: cell-based
Settings: category of cAMP IC50, human DP1 receptor expressing Jurkut cell
pIC50: −log10 of the molar value.
Each entry below carries its recorded pIC50.
MEASURED_QUANTITY: pIC50

COMPOUND | TARGET_DESC | TEST_VALUE
CCOc1ncc(S(=O)(=O)N2C[C@@H](C)[C@@H](n3nc(CC(=O)O)c4ccccc43)C2)s1 | Human DP1 receptor (Homo sapiens (Human)) | > 7.00
CCOc1ccc(S(=O)(=O)N2C[C@@H](C)[C@@H](n3nc(C(O)C(=O)O)c4ccccc43)C2)cc1 (single isomer, unassigned) [Compound I-307] | Human DP1 receptor (Homo sapiens (Human)) | 5.30 to 7.00
CCOCCCOc1ccc(S(=O)(=O)N2C[C@@H](C)[C@@H](n3nc(CC(=O)O)c4ccccc43)C2)cc1 | Human DP1 receptor (Homo sapiens (Human)) | 5.30 to 7.00
CCOc1ccc(S(=O)(=O)N2C[C@@H](C)[C@@H](n3nc(CC(=O)O)c4ccccc43)C2)cc1[N+](=O)[O-] | Human DP1 receptor (Homo sapiens (Human)) | 5.30 to 7.00
C[C@@H]1CN(S(=O)(=O)c2ccccc2C#N)C[C@@H]1n1nc(CC(=O)O)c2ccc(F)cc21 | Human DP1 receptor (Homo sapiens (Human)) | 5.30 to 7.00
CC(C)Oc1ccc(S(=O)(=O)N2C[C@@H](n3nc(CC(=O)O)c4ccc(F)cc43)C[C@H]2C)cc1 | Human DP1 receptor (Homo sapiens (Human)) | 5.30 to 7.00
CCOc1ccc(S(=O)(=O)N2C[C@@H](C)[C@@H](n3nc(CC(=O)O)c4ccc(F)cc43)C2)cc1 | Human DP1 receptor (Homo sapiens (Human)) | > 7.00

* * *

Biological target: CRTH2 (Homo sapiens (Human))
Test: CRTH2 receptor binding inhibitory activity ([3H]-PGD2 displacement, membranes of CRTH2-expressing K562 cell)
Settings: CRTH2 receptor binding, [3H]-PGD2 displacement, membrane of CRTH2-expressing K562 cell; categorized AAAA/AAA; read-out: Ki
Items are presented alongside their recorded Ki.

MOLECULE | Ki
CCOc1ccc(S(=O)(=O)N2C[C@@H](C)[C@@H](n3nc(CC(=O)NO)c4ccccc43)C2)cc1 [Compound I-311] | 100 to 5000 nM
CCOc1ccc(S(=O)(=O)N2C[C@@H](C)[C@@H](n3nc(CC(=O)O)c4cc(C)ccc43)C2)cc1 [Compound I-202] | 100 to 5000 nM
CCOc1ccc(S(=O)(=O)N2C[C@@H](C)[C@@H](n3cc(CC(=O)O)c4ccc(-c5cnn(C)c5)cc43)C2)cc1 [Compound I-328] | 100 to 5000 nM
CC(C)Oc1ccc(S(=O)(=O)N2C[C@H](n3nc(CC(=O)O)c4ccc(F)cc43)C[C@@H]2COc2ccccc2O)cc1 [Compound I-292] | 100 to 5000 nM
CC(C)C1CC1S(=O)(=O)N1C[C@@H](C)[C@@H](n2nc(CC(=O)O)c3ccc(F)cc32)C1 (stereo partly shown) [Compound I-239] | < 100 nM
COc1ccc(S(=O)(=O)N2C[C@@H](C)[C@@H](n3nc(CC(=O)O)c4ccc(C)cc43)C2)cc1 [Compound I-230] | < 100 nM
CC(C)Oc1ccc(S(=O)(=O)N2C[C@@H](n3nc(CC(=O)O)c4ccc(F)cc43)[C@@H](C)C2)cc1 [Compound I-36] | < 100 nM

* * *

Molecular target: CRTH2 (Homo sapiens (Human), UniProt Q9Y5Y4)
Sequence (Q9Y5Y4 whole entry): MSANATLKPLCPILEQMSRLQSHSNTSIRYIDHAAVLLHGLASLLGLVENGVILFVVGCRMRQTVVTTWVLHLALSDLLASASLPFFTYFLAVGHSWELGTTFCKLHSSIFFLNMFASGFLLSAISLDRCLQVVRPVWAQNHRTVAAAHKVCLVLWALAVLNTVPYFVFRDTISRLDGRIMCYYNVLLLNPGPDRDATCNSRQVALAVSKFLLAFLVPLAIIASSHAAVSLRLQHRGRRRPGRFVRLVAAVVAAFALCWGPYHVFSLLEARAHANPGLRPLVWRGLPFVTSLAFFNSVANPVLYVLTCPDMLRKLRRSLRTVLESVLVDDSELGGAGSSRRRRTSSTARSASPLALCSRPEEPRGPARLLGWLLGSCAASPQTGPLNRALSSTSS
Experiment: CRTH2 receptor binding inhibitory activity ([3H]-PGD2 displacement, membranes of CRTH2-expressing K562 cell)
Details: CRTH2 receptor binding, [3H]-PGD2 displacement, membrane of CRTH2-expressing K562 cell; categorized AAAA/AAA; read-out: Ki
Procedure: Cell membrane was prepared from CRTH2-expressing K562 cell. The cell membrane (20 μg/well) was mixed with reaction buffer (50 mM Tris/HCl, pH 7.4, 10 mM MgCl2). Then, [^3H]-PGD2 was added to the mixture and incubated for 60 min at room temperature. […] Then, the mixture was filtrated with glass paper immediately. The filter paper was washed several times and radio activity on the filter was measured. […] Ki values for each compound were calculated from displacement curve.
Listed here are compounds together with their documented Ki.
MEASURED_QUANTITY: Ki

SAMPLE_SMILES | TEST_VALUE
CCOc1ccc(S(=O)(=O)N2C[C@@H](C)[C@@H](n3nc(CC(=O)O)c4ccccc43)C2)c([N+](=O)[O-])c1 | < 100 nM
CCOc1ccc(S(=O)(=O)N2C[C@@H](C)[C@H](n3nc(CC(=O)O)c4ccccc43)C2)cc1 | 100 to 5000 nM
CC(C)Oc1ccc(S(=O)(=O)N2C[C@H](n3nc(CC(=O)O)c4cccc(F)c43)C[C@@H]2C)cc1 | 100 to 5000 nM
Cc1ccc2c(CC(=O)O)nn([C@H]3CN(S(=O)(=O)c4ccc(OC(C)C)cc4)C[C@@H]3C)c2c1 | < 100 nM
C[C@@H]1CN(S(=O)(=O)c2ccc(OC(F)(F)F)cc2)C[C@@H]1n1nc(CC(=O)O)c2ccc(F)cc21 | < 100 nM
CCOc1ccc(S(=O)(=O)N2C[C@H](n3nc(CC(=O)O)c4ccccc43)[C@H](C)[C@H]2C#N)cn1 | 100 to 5000 nM
C[C@]1(O)CN(S(=O)(=O)c2ccc(F)cc2)C[C@@H]1n1nc(CC(=O)O)c2ccccc21 | < 100 nM

* * *

Molecular target: UniProt Q13258
Assay: Human DP1 inhibitory activity in DP1-expressing cell (PGD2-induced cAMP)
Format: cell-based
Details: category of cAMP IC50, human DP1 receptor expressing Jurkut cell
pIC50: −log10 of the molar value.

COMPOUND | pIC50
CCOc1ccc(S(=O)(=O)N2C[C@@H](C)[C@@H](n3nc(CC(=O)O)c4ccc(F)cc43)C2)c(F)c1 [Compound I-147] | > 7.00
CC(C)Oc1ccc(S(=O)(=O)N2C[C@H](n3nc(CC(=O)O)c4ccc(F)cc43)C[C@]2(C)C#N)cc1 [Compound I-104] | > 7.00
CCOc1ccc(S(=O)(=O)N2C[C@H](n3c(C)c(CC(=O)O)c4ccccc43)C[C@@H]2C)cc1 [Compound I-315] | > 7.00
COCCOCCOc1ccc(S(=O)(=O)N2C[C@@H](C)[C@@H](n3nc(CC(=O)O)c4ccccc43)C2)cc1 [Compound I-253] | 5.30 to 7.00
